// data source = patent US20150191542A1

# Lookup of reported EC50 (read off the curve) keyed by entry
# measurementTarget: MICA*004 expressed on C1R transfectant cells (human) (UniProt Q29983)
# Sequence (Q29983 other isoform, or with tags, fused parts or gaps limits assumed): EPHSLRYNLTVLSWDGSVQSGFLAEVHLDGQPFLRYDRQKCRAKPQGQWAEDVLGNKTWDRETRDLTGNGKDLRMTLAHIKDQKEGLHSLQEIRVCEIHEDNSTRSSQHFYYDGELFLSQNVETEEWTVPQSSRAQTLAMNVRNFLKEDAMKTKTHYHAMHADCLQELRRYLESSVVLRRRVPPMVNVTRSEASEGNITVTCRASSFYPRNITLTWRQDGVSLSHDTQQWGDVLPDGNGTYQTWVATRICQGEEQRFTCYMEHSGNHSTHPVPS
# experimentalProtocol: flow cytometry, MFI against antibody concentration on C1R-MICA*04 cells
Give a bare numeral; the unit µg/mL is implied.

{"binder": "CHG1-M-MIA-14B4 (antibody, from a related filing, V domains shown) VH: QVQLQQPGAELVRPGASVKLSCKASGYSFTSYWMNWMKQRPGQGLEWIGMIHPSDSETRLNQKFKDKATLTVDKSSSTAYMQLNSPTSEDSAVYYCAREMGPYTLDYWGQGTSVTVSS VL: DILLTQSPAILSVSPGARVSFSCRASQNIDTSIHWYQQRTNGSPRLLIKYASESISGIPSRFSGSGSGTDFTLSINSVESEDIADYYCQQSNYWPLTFGAGTKLELK", "readoutLabel": "EC50 (read off the curve)", "recordedNumber": 0.2}
{"binder": "CHG1-M-MIA-18E8 (antibody, from a related filing, V domains shown) VH: DVQLQESGPDLVNPSQSLSLICTVTGYSITSDYSWHWIRQFPGNKLEWMGNIHYSGRINYNPSLRSRISITRDTSKNQFFLQLISVTTEDTATYYCATRRTFGNFEDYWGQGTTLTVSS VL: QIVLSQSPATLSVSPGEKVTMTCRSSSSVNYMHWYQQKPGSSPKPWIYATSTLASGVPARFSGSGSGTSYSLTISRVEAEDAATYYCQQWSSNPLTFGAGTKLELK", "readoutLabel": "EC50 (read off the curve)", "recordedNumber": 0.2}
{"binder": "CHG1-M-MIA-12A10 (antibody, from a related filing, V domains shown) VH: QVQLQQSGADLVRPGASVRLSCRASGYSFTNYWMNWVKQRPGQGLEWIGMIHPSDSETRLNQKFKDKATLTVDKSSNTAYMQLSSPTSEDSAIYYCARDDFFTMDYWGQGTSVTVSS VL: DILLTQSPAILSVSPGERVSFSCRASQNIVTSIHWYQQSTNGSPRLLIKYASESISGIPSRFSGSGSGTDFTLTINSVESEDVADYYCQQSNIWPLTFGAGTKLELK", "readoutLabel": "EC50 (read off the curve)", "recordedNumber": 0.3}

Field: next binder
Q: Endpoint output: EC50 (read off the curve) of CHG1-M-MIA-10F3 (antibody, from a related filing, V domains shown) VH: QVQLQQSAAELARPGASVKMSCKASGYTFTSYTMHWVKQRPGQGLEWIGYINPSSGYTEYNQKFKDKTTLTVDKSSTTSYMQLSSLTSDNSAVYYCARGGDWDVDWFVYWGQGTLVTVSA VL: QIVLTQSPAIMSASPGEKVTITCSASSSISYMHWFQQKPGTSPKLWIYSTSKLASGVPARFSGSGSGTSHSLTISRMEAEDAATYYCQHRSTYPFTFGSGTKLEIK . Value?
A: 0.2
